# Assay Protocol: melting temperature; fluorescence melt of hairpins on a sequencing array, two-state fit, raised by 9.35 °C to match UV melts
# Applied Conditions: sodium 0.088 M
Quick reference for Tm among some sequences
# value in °C; strip the unit string

[[record]]
sequence_code = "GAGCACCCGAAAGGGCTC (((..(((....))))))"
quantity_name = "Tm"
assay_value = 48.6

[[record]]
sequence_code = "GTGTCTCGAAAGAGCCAC (((.(((....))).)))"
quantity_name = "Tm"
assay_value = 49.7

[[record]]
sequence_code = "GATCCAATCTGGATC ((((((...))))))"
quantity_name = "Tm"
assay_value = 51.8

[[record]]
sequence_code = "GGTAGCGAAAGCTAGACC ((((((....)))..)))"
quantity_name = "Tm"
assay_value = 40.1


Which Tm is listed for GAACGCGAAAGCGGATTC ((((((....)))..))) ?
49.5

Now give it for GAGGTGGGAAACCGCTTC ((.(.((....)).).)) too.
50

Could you do the same for GGTCCGCGAAAGCGCACC (((.(((....))).))) , please?
48.3

====

# Assay Protocol: melting temperature; fluorescence melt of hairpins on a sequencing array, two-state fit, raised by 9.35 °C to match UV melts
# Applied Conditions: sodium 0.088 M
Binary classification by Tm, with 50 °C as an inclusive lower bound for fulfilled; all other cases are not fulfilled.

Has GATCTCTCGAGAGATC ((((((....)))))) a recorded Tm greater than or equal to 50 °C?
fulfilled

Now the sequence GCTGTGCGAAAGCCAAGC (((..((....))..)))
not fulfilled

What do we get for GTAGCGGGAAACTGCTGC (.(((.(....).))).) ?
not fulfilled

Next up: GGATACGAAAGTATCC ((((((....))))))
fulfilled

Same question for GCGTTGCGAAAGCTAAGC ((.(.((....)).).)) please.
fulfilled

====

# Assay Protocol: folding enthalpy; higher = less favourable; fluorescence melt of hairpins on a sequencing array, two-state fit
# Applied Conditions: sodium 0.088 M
Measured folding enthalpy values are reported for all entries that follow.
// note: answer is a bare numeric in kcal/mol

A selection of reference data follows.
[[record]]
sequence_code = "GCTTCCGGAAACGAAAGC ((((.((....)).))))"
quantity_name = "folding enthalpy"
assay_value = -29.7

[[record]]
sequence_code = "GCTGCCCGAAAGGGTAGC (((.(((....))).)))"
quantity_name = "folding enthalpy"
assay_value = -40.5

[[record]]
sequence_code = "CGCACGGAAACGTTAGCG ((((((....)))..)))"
quantity_name = "folding enthalpy"
assay_value = -31.9


Recorded folding enthalpy of GAACACCCGAAAGGGTTC (((..(((....)))))) , please.
-8.81

GTATGCGAAAGCATAC ((((((....)))))) , same question.
-28.3

CGGTCCCGGAAACGGCCG (((..(((....)))))) ?
-21.1

Now give it for GAGTCCCCGAAAGGGCTC (((..(((....)))))) too.
-19.2

Next: GCAAGGCGAAAGCTGTGC (((..((....))..)))
-18.1

====

# Assay Protocol: melting temperature; fluorescence melt of hairpins on a sequencing array, two-state fit, raised by 9.35 °C to match UV melts
# Applied Conditions: sodium 0.088 M
Quantity Name: Tm (°C)
Write the value in °C as a bare number.

Worked set:
[[record]]
sequence_code = "GATCTTCGTGAAGATC ((((((....))))))"
quantity_name = "Tm"
assay_value = 53.3

[[record]]
sequence_code = "GGAATGGGAAACTATTCC (((((.(....).)))))"
quantity_name = "Tm"
assay_value = 42.3

[[record]]
sequence_code = "GCGTTCGAAAGAAAACGC ((((((....)))..)))"
quantity_name = "Tm"
assay_value = 49

[[record]]
sequence_code = "GCACCGCCGAAAGGCTGC (((..(((....))))))"
quantity_name = "Tm"
assay_value = 38.9

[[record]]
sequence_code = "GCATGTCCGAAAGGATGC (((..(((....))))))"
quantity_name = "Tm"
assay_value = 40.2


Consider the sequence GATCTTTATCAAGATC ((((((....)))))) and give its measured Tm.
39.3

Again, but for GCCTTCGGAAACGAAAGC ((.((((....)))).))
40.4

====

Below, each entry is listed with its recorded Tm.
# Assay Protocol: melting temperature; fluorescence melt of hairpins on a sequencing array, two-state fit, raised by 9.35 °C to match UV melts
# Applied Conditions: sodium 0.088 M
Quick reminder: number only, in °C, skip the unit.

Sample GATAAGGAAACTTATC ((((((....)))))) — what was its Tm?
40.1

For GCGTAGCCACGC ((((....)))) then?
58.3

Same question for CGTCCGGAAACGGGCACG ((((((....)))..))) please.
38.9

Now consider GATCTATCCTAGATC ((((((...)))))) .
41.1

Next sequence: GCCGAACGAAAGTTGGGC (((.(((....))).)))
58.5

====

# Assay Protocol: melting temperature; fluorescence melt of hairpins on a sequencing array, two-state fit, raised by 9.35 °C to match UV melts
# Applied Conditions: sodium 0.088 M
Entries and their measured Tm follow.
Express it in °C; write the number only.

[[record]]
sequence_code = "GCGAGAAGTCGC ((((....))))"
assay_value = 50.2

[[record]]
sequence_code = "GAATAACGAAAGTTCTTC (((.(((....))).)))"
assay_value = 32.2

[[record]]
sequence_code = "GTGCGTACGAAAGTACAC (((..(((....))))))"
assay_value = 54.1

[[record]]
sequence_code = "GCCACAGGAAACTGCGGC (((.(((....))).)))"
assay_value = 52

[[record]]
sequence_code = "GATCATATCGATGATC ((((((....))))))"
assay_value = 47.4


Please look up its Tm: GAGTCCCCGAAAGGGCTC (((..(((....))))))
44.4

====

# Assay Protocol: melting temperature; fluorescence melt of hairpins on a sequencing array, two-state fit, raised by 9.35 °C to match UV melts
# Applied Conditions: sodium 0.088 M
Reported values of Tm for individual entries
Lab note: write values as number then unit, every time.

Some solved cases for reference:
[[record]]
sequence_code = "GCCGTGCGAAAGCATCGC ((..(((....)))..))"
quantity_name = "Tm"
assay_value = "50.2 °C"

[[record]]
sequence_code = "GCTTACGGAAACGTGAGC (((.(((....))).)))"
quantity_name = "Tm"
assay_value = "52.6 °C"

[[record]]
sequence_code = "GCTTCGCGAAAGCGTCGC ((..(((....)))..))"
quantity_name = "Tm"
assay_value = "41.4 °C"


// next entry
Quick one: Tm for GTGCAGCGAAAGCTCCAC (((.(((....))).))) ?
44.7 °C

====

# Assay Protocol: folding enthalpy; higher = less favourable; fluorescence melt of hairpins on a sequencing array, two-state fit
# Applied Conditions: sodium 0.088 M
Threshold check on folding enthalpy: at or above -90 kJ/mol gives label 1, strictly below gives label 0.

These recorded examples may help you get a feel for the data.
[[record]]
sequence_code = "GTATGCGAAAGCACTTAC ((((((....)))..)))"
category_label = "label 1"

[[record]]
sequence_code = "GGAGCCGAAAGGCACTCC ((((((....)))..)))"
category_label = "label 1"

[[record]]
sequence_code = "GGGACTTCGAAAGAACCC (((..(((....))))))"
category_label = "label 1"

[[record]]
sequence_code = "CGCTCGGAAACGAAGCG ((((((....))).)))"
category_label = "label 0"

[[record]]
sequence_code = "GTCCCCGAAAGGGCGGAC ((((((....)))..)))"
category_label = "label 1"

[[record]]
sequence_code = "GCATGGGGAAACTCATGC (((((.(....).)))))"
category_label = "label 0"

[[record]]
sequence_code = "AACGAGAAATCGTT (((((....)))))"
category_label = "label 1"

[[record]]
sequence_code = "GGCGAGGGAAACCTCACC ((.((((....)))).))"
category_label = "label 0"


Is folding enthalpy at least -90 kJ/mol? Consider GTAGACGGAAACGTTTAC (((.(((....))).)))
label 0

One more sequence: GATCCATTCCTGGATC ((((((....))))))
label 0

====

# Assay Protocol: melting temperature; fluorescence melt of hairpins on a sequencing array, two-state fit, raised by 9.35 °C to match UV melts
# Applied Conditions: sodium 0.088 M
Think of 60 °C as a floor: if Tm stands on it or above, it is Fulfilled; beneath it, Not fulfilled.

[[record]]
sequence_code = "GCGCGGCGAAAGCAGAGC ((.(.((....)).).))"
category_label = "Fulfilled"

[[record]]
sequence_code = "GCGGGGCGAAAGCTGCGC (((..((....))..)))"
category_label = "Fulfilled"


Assess whether reported Tm for GGTTCAGGAAACTGAGCC ((.((((....)))).)) sits at 60 °C or higher.
Not fulfilled

What about this sequence? GTCCGCGAAAGCGGGAC ((((((....))).)))
Fulfilled
